- assayed-system: UniProtKB P07949
- protocol-details: biochemical
pIC50: −log10 of the molar value.
experimental-readout: pIC50

>>> measured_result("CC1(n2c3c(c4c(N)ncnc42)-c2noc(C4CC4)c2C(O)CC3)CC1 (centres unmarked)")
8.15

a: CO[C@@H]1CCc2c(c3c(N)ncnc3n2C2(C)CC2)-c2noc(C3CC3)c21
b: CC(C)n1c2c(c3c(N)ncnc31)-c1noc(C3CC3)c1C(=O)N(C)C2
c: CO[C@H]1CCc2c(c3c(N)ncnc3n2C(C)C)-c2noc(C3CC3)c21 (single isomer, unassigned)
d: CNC1CCc2c(c3c(N)ncnc3n2C(C)C)-c2noc(C3CC3)c21 (centres unmarked)
Task item: With regard to pIC50, arrange the entries in ascending order, please. Record the ranking as a list of labels in the requested order.
Reply: c, d, b, a

###

- assayed-system: G810S mutant RET kinase (Homo sapiens, UniProt P07949, G810S);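 further: HTRF KinEASE-TK kinase assay with recombinant enzyme, 1 h at 22 °C, dual-wavelength ratiometric read-out, percent of control (DMSO-only = 100, pre-quenched reaction = 0)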
- protocol-details: biochemical
experimental-readout: IC50 (nM)

>>> measured_result("CC(C)n1c2c(c3c(N)ncnc31)-c1noc(C3CC3)c1C=CC2 [Example 30]")
300
>>> measured_result("CC(C)n1c2c(c3c(N)ncnc31)-c1noc(C3CC3)c1C(=O)N(CCN1CCS(=O)(=O)CC1)C2 [Example 9]")
298
>>> measured_result("CC(C)n1c2c(c3c(N)ncnc31)-c1cc3ccc(C#N)cc3n1C(=O)NC2 [Example 76]")
292

###

- assayed-system: HEK-293 cells expressing a Kif5b-RET fusion protein (Homo sapiens, UniProt P07949)
- Construct: KIF5B (N-terminal portion incl. coiled-coil); the other entry of the earlier key: KIF5B (P33176, Kinesin-1 heavy chain)
- Sequence (P07949 713-1063 limits assumed): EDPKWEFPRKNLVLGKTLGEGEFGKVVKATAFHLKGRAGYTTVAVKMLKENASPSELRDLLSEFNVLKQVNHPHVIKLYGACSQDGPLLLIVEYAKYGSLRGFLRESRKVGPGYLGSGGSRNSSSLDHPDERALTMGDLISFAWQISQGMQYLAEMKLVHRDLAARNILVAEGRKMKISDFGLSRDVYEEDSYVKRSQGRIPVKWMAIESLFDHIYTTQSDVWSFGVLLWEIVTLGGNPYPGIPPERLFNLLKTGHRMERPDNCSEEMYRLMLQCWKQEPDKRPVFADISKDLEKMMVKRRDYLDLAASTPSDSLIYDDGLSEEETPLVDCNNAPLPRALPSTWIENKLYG
- protocol-details: RET Cell Assay (phospho-RET Tyr1062)
- applied-conditions: HEK-293 Kif5b-RET, 1 hour incubation, phospho-RET normalized to GAPDH; read-out: KIF5B-RET pTYR1062 Cell IC50
experimental-readout: IC50 (nM)

I: COC1CCc2c(c3c(N)ncnc3n2C(C)C)-c2noc(C3CC3)c21 (racemic)
II: Nc1ncnc2c1c1c(n2C(CF)CF)CC[C@H](O)c2c-1noc2C1CC1 (single isomer, unassigned)
III: C[C@@H](n1c2c(c3c(N)ncnc31)-c1noc(C3CC3)c1[C@H](O)CC2)C(F)(F)F (single isomer, unassigned) [Example 147, 2,2,2-trifluoroacetate]
Task item: Kindly sort the 3 compounds above from the smallest to the largest IC50. Record the ranking as a list of labels in the requested order.
Reply: II, III, I
(II: 5 nM, III: 21 nM, I: 64 nM)

###

- assayed-system: G810R mutant RET kinase (Homo sapiens, UniProt P07949, G810R);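 further: HTRF KinEASE-TK enzymatic assay with 1 nM recombinant RET G810R, 1 h at 22 °C, dual-wavelength ratiometric readout, 100% control without compound, 0% from pre-quenched reactions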
- protocol-details: biochemical
pIC50: −log10 of the molar value.
experimental-readout: pIC50

>>> measured_result("CO[C@H]1CCc2c(c3c(N)ncnc3n2C(C)C)-c2noc(C3CC3)c21 (single isomer, unassigned)")
6.51
>>> measured_result("Nc1ncnc2c1c1c(n2-c2ccccc2)CCC(O)c2c-1noc2C1CC1 (centres unmarked) [Example 118, 2,2,2-trifluoroacetate]")
7.10

I: Cc1ccc2cc3n(c2c1)C(=O)NCc1c-3c2c(N)ncnc2n1C(C)C
II: CC(C)n1c2c(c3c(N)ncnc31)-c1noc(C3CC3)c1C(=O)N(Cc1ccccc1)C2
III: CC(C)n1c2c(c3c(N)ncnc31)-c1noc(C3CC3)c1C(=O)OC2
Task item: With regard to pIC50, arrange the entries in ascending order, please. Record the ranking as a list of labels in the requested order.
Reply: I, II, III
(I: 6.49, II: 6.77, III: 7.15)

###

- assayed-system: HEK-293 cells expressing a G810S mutant RET Kif5b-RET fusion protein (Homo sapiens, UniProt P07949, G810S)
- Construct: KIF5B (N-terminal portion incl. coiled-coil)
- protocol-details: RET G810S Mutant Cell Assay (phospho-RET Tyr1062)
- applied-conditions: HEK-293 Kif5b-RET G810S, 1 hour incubation, phospho-RET normalized to GAPDH
pIC50: −log10 of the molar value.
experimental-readout: pIC50

>>> measured_result("COC(=O)c1ccc2cc3n(c2c1)C(=O)NCc1c-3c2c(N)ncnc2n1C(C)C [Example 70]")
6.41

1: CC(C)n1c2c(c3c(N)ncnc31)-c1noc(C3CC3)c1[C@@H](O)[C@H](C)C2 (single isomer, unassigned) [Example 64]
2: CC1(n2c3c(c4c(N)ncnc42)-c2noc(C4CC4)c2C(O)CC3)CC1 (stereo not shown) [Example 149]
3: CC(C)n1c2c(c3c(N)ncnc31)-c1noc(C3CC3)c1C(O)CC2 (racemic) [Example 29]
Task item: Please list the entries, largest pIC50 first. Record the ranking as a list of labels in the requested order.
Reply: 2, 3, 1
(2: 7.70, 3: 7.43, 1: 7.05)

P: CC(C)n1c2c(c3c(N)ncnc31)-c1cc3ccc(C(=O)NC4CC4)cc3n1CCC2 [Example 87]
Q: CC(C)n1c2c(c3c(N)ncnc31)-c1cc3cc(Cl)ccc3n1C(=O)NC2 [Example 77]
Task item: Return label of the item with the larger pIC50. Candidates: P , Q . Kindly give the label for the entry you pick.
Reply: Q

###

- assayed-system: RET kinase Wild Type (Homo sapiens, UniProt P07949)
- protocol-details: biochemical
experimental-readout: IC50 (µM)

See these solved cases before continuing.
>>> measured_result("CC(C)(O)[C@H]1C[C@@H](n2c3c(c4c(N)ncnc42)-c2noc(C4CC4)c2C(O)CC3)C1 (stereo partly shown)")
0.143
>>> measured_result("CC(C)n1c2c(c3c(N)ncnc31)-c1cc3ccc(C(=O)Nc4ccn(CCC(F)(F)F)n4)cc3n1CCC2")
0.135
>>> measured_result("CC(C)n1c2c(c3c(N)ncnc31)-c1cc(C3CC3)nn1C(=O)NC2")
0.404
>>> measured_result("CC(C)n1c2c(c3c(N)ncnc31)-c1ccc(NC(=O)NC3CC3)cc1C(=O)NC2")
8.42
>>> measured_result("CC(C)n1c2c(c3c(N)ncnc31)-c1noc(C3CC3)c1C(=O)N(Cc1ccccc1)C2")
0.091
>>> measured_result("CCC(=O)N1Cc2c(noc2C2CC2)-c2c(n(C(C)C)c3ncnc(N)c23)C1 [Example 37, 2,2,2-trifluoroacetate]")
0.318
>>> measured_result("Nc1ncnc2c1c1c(n2C2CCCC2)CCC(O)c2c-1noc2C1CC1 (single isomer, unassigned) [Example 124]")
0.024
>>> measured_result("CC(C)n1c2c(c3c(N)ncnc31)-c1noc(C3CC3)c1CN(C(=O)Cc1ccccc1)C2")
0.893

A: COC(=O)c1ccc2cc3n(c2c1)C(=O)NCc1c-3c2c(N)ncnc2n1C(C)C
B: CNC(=O)c1ccc2c(Cl)c3n(c2c1)C(=O)NCc1c-3c2c(N)ncnc2n1C(C)C
Task item: Lab log: flag the item ( A or B ) with the smaller IC50 figure. Kindly give the label for the entry you pick.
Reply: A
(A: 0.092 µM, B: 0.353 µM)

###

- assayed-system: RET kinase Wild Type (Homo sapiens, UniProt P07949);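 further: HTRF kinase activity assay on RET enzyme, 1 h reaction at 22 °C, dual-wavelength readout as percent of control, DMSO-only wells as 100%, pre-quenched reactions as 0%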
- protocol-details: biochemical
pIC50: −log10 of the molar value.
experimental-readout: pIC50

>>> measured_result("CC(=O)N1CCC(n2c3c(c4c(N)ncnc42)-c2noc(C4CC4)c2C(O)CC3)C1 (stereo not shown) [Example 134, 2,2,2-trifluoroacetate]")
6.95
>>> measured_result("CC(C)n1c2c(c3c(N)ncnc31)-c1noc(C3CC3)c1S(=O)(=O)CC2 [Example 23, 2,2,2-trifluoroacetate]")
7.74
>>> measured_result("COC1CCc2c(c3c(N)ncnc3n2C(C)C)-c2noc(C3CC3)c21 (racemic) [Example 53]")
7.80
>>> measured_result("Nc1ncnc2c1c1c(n2[C@H]2C[C@@H](CO)C2)CCC(O)c2c-1noc2C1CC1 (stereo partly shown) [Example 136]")
6.70
>>> measured_result("CC(C)n1c2c(c3c(N)ncnc31)-c1cc3cc(Cl)ccc3n1C(=O)NC2 [Example 77]")
7.57

a: CC1Cc2c(c3c(N)ncnc3n2C(C)C)-c2noc(C3CC3)c2C1O (stereo not shown) [Example 61]
b: Nc1ncnc2c1c1c(n2C2CCOC2)CCC(=O)c2c-1noc2C1CC1 (stereo not shown) [Example 141]
Task item: Lab log: flag the item ( a or b ) with the smaller pIC50 figure. Kindly give the label for the entry you pick.
Reply: b
(b: 6.86, a: 7.51)
